Target: wild-type human cardiac sodium channel, hNav1.5 (Homo sapiens, UniProt Q14524)
Sequence (Q14524 whole entry): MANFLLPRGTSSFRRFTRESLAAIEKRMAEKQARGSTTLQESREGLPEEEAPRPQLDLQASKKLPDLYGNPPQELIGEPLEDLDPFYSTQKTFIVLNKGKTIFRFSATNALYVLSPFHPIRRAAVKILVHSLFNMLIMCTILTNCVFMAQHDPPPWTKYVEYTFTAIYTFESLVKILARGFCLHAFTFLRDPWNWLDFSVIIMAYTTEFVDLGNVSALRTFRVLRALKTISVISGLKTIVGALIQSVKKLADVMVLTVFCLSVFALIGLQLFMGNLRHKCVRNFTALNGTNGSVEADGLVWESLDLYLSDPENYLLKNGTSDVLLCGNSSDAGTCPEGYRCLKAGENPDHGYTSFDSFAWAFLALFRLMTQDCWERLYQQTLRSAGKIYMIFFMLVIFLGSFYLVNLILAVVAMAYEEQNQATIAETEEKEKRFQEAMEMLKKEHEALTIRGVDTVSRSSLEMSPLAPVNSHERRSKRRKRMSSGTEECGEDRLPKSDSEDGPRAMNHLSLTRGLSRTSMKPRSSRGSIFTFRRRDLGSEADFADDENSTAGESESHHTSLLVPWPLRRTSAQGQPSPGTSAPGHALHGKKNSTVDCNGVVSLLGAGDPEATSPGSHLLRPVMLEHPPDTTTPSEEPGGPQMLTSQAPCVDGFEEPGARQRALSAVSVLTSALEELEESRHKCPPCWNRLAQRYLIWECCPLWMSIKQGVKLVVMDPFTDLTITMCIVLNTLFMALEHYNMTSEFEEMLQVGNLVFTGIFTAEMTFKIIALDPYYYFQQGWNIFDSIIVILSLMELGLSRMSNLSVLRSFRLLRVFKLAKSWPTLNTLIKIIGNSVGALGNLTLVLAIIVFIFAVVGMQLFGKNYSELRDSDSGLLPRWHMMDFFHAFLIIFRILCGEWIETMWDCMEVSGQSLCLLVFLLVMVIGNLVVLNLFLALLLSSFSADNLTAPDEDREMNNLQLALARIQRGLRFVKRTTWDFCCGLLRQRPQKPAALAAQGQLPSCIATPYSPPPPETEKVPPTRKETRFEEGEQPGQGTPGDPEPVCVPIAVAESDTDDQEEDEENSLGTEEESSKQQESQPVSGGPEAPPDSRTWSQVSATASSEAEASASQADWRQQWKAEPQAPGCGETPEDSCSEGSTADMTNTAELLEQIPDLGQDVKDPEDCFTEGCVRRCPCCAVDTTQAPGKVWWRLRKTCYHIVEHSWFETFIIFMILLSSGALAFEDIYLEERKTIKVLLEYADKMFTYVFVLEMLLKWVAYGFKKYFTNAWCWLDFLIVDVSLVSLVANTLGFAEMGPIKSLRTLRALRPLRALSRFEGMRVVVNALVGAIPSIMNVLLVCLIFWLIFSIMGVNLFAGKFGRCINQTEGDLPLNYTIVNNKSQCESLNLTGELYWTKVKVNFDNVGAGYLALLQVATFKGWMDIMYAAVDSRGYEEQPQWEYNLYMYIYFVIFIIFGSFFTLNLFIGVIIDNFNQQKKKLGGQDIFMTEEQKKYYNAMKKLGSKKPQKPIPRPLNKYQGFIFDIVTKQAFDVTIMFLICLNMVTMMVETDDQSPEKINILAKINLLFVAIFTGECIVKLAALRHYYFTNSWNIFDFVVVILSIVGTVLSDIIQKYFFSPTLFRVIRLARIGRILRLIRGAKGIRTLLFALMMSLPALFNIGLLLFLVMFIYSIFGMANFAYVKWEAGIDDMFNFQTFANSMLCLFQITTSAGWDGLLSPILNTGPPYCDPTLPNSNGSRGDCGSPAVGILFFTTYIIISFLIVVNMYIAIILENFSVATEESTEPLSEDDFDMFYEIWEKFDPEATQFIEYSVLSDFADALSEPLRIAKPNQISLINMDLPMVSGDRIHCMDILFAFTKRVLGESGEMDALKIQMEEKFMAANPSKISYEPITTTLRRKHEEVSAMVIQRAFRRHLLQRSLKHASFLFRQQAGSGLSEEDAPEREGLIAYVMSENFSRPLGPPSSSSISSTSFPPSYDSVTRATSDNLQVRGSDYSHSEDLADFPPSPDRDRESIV
Assay: Late INa screening assay (automated whole cell patch clamp, PatchXpress)
Type: cell-based
Conditions: compound at 1 μM; HEK293 cells expressing hNav1.5; late INa generated with 10 μM Tefluthrin (or 50 nM ATX II); read-out: LateINa_1 uM (percent block of late INa)
Label fulfilled when inhibition at 1 µM is at or above 30%; otherwise label not fulfilled.

Example results:
[
  {
    "compound": "O=C(NCC(F)(F)c1nnc2ccc(-c3ccc(OC(F)(F)F)cc3)cn12)Nc1ccccc1 [BHN-263]",
    "cat": "not fulfilled"
  },
  {
    "compound": "CC(OC(F)(F)c1nnc2ccc(-c3ccc(OC(F)(F)F)cc3)cn12)c1cnc2ccccc2c1 (centres unmarked) [BHN-282]",
    "cat": "fulfilled"
  },
  {
    "compound": "FC(F)c1nnc2ccc(-c3ccc(Oc4ccccc4)cc3)nn12 [BHN-13]",
    "cat": "fulfilled"
  },
  {
    "compound": "CC(OC(F)(F)c1nnc2ccc(-c3ccc(OC(F)(F)F)cc3)cn12)c1ccc(F)cc1 (centres unmarked) [BHN-217]",
    "cat": "not fulfilled"
  }
]

Turning now to a further record.
Q. # bool: inhibition at 1 µM of FC(F)(F)Oc1ccc(-c2ccc3nnnn3c2)cc1 [BHN-98] >= 30%
A. fulfilled

* * *

Biological target: wild-type human cardiac sodium channel, hNav1.5 (Homo sapiens, UniProt Q14524)
Assay: Late INa screening assay (automated whole cell patch clamp, PatchXpress)
Type: cell-based
Settings: compound at 1 μM; HEK293 cells expressing hNav1.5; late INa generated with 10 μM Tefluthrin (or 50 nM ATX II); read-out: LateINa_1 uM (percent block of late INa)
Listing of recorded inhibition at 1 µM by entry.
A number alone suffices; assume %.

Consider the worked cases shown below.
[
  {
    "molecule": "FC(F)(F)c1nnc2ccc(-c3ccc(OC(F)(F)c4cccnc4)cc3)cn12 [BHN-271]",
    "inhibition at 1 µM (%)": 19.9
  },
  {
    "molecule": "COc1ncc(-c2cc(OC(F)(F)F)ccc2-c2ccc3nnc(C(F)(F)F)n3c2)cn1 [BHN-131]",
    "inhibition at 1 µM (%)": 18.5
  },
  {
    "molecule": "FC(F)(F)Oc1ccc(-c2ccc3nnc(C(F)(F)OCc4cccc(-n5cnc(C6CC6)c5)c4)n3c2)cc1 [BHN-317]",
    "inhibition at 1 µM (%)": 46.4
  },
  {
    "molecule": "CC1(c2ccc(-c3ccc4nnc(C(F)(F)F)n4c3)cc2)OCCO1 [BHN-162]",
    "inhibition at 1 µM (%)": 29.9
  }
]

Q. Returns the measured inhibition at 1 µM for the input molecule. Input: Cc1cc(COC(F)(F)c2nnc3ccc(-c4ccc(OC(F)(F)F)cc4)cn23)nn1-c1ccc(Cl)cc1 [BHN-302]
A. 52.8

Q. Could you do the same for Cc1cc(-c2ccc(OC(F)(F)F)cc2)cn2c(C(F)(F)F)nnc12 [BHN-103] , please?
A. 40.7

Q. Would you kindly repeat that for COCC(F)(F)c1nnc2ccc(-c3ccc(Oc4ccc(Cl)cc4)cc3)cn12 [BHN-137] ?
A. 48.2

Q. Same question for COCC(F)(F)c1nnc2ccc(-c3ccc(OCC(F)(F)F)nc3)cn12 [BHN-144] please.
A. 36.4

Value source: patent US8952034B2
